Cited source: patent US20100129369A1

Target: T1, human c-Met ECD-Fc-Flis (human)
T1 construct: c-Met ECD fused to Fc with flag- and His-tag at the C-terminus; also called human c-Met extracellular domain (ECD)-Fc-Flis fusion; human c-Met-Flis-Fc ECD
T1 sequence (chain, as listed by the source): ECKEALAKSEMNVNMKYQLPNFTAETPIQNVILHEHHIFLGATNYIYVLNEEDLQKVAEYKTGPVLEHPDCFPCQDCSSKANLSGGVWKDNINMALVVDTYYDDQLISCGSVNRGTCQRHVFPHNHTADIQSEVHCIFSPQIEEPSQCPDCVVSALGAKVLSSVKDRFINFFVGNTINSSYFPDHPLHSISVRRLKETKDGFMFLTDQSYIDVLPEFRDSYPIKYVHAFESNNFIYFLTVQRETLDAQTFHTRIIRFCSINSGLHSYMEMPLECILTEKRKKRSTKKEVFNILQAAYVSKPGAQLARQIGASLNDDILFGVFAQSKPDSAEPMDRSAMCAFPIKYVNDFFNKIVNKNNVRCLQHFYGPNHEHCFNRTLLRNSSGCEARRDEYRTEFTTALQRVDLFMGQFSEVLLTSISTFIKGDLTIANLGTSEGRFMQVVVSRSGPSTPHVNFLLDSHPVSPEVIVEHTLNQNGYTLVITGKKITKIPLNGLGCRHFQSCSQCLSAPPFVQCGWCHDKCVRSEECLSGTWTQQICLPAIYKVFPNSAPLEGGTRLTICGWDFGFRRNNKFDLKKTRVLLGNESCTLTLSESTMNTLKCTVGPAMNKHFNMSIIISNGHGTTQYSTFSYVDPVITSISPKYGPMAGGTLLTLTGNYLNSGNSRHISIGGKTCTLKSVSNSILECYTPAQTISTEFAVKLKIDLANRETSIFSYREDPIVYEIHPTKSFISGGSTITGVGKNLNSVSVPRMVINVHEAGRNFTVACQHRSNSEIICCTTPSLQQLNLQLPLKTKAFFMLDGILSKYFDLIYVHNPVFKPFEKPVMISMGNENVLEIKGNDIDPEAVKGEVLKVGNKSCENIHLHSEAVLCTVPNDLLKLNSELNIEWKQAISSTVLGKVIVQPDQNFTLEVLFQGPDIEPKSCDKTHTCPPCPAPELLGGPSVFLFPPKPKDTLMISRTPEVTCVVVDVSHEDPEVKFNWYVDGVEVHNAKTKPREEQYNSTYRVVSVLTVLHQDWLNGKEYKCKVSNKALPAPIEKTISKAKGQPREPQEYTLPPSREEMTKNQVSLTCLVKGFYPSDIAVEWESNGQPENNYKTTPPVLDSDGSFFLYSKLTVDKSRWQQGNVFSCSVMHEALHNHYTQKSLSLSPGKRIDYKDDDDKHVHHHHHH
Test: HGF-blocking ELISA: HGF signal on coated c-Met ECD-Fc-Flis; Ab 7.63 ng/mL
recorded-metric: AVG A450 nm (A450 nm)
Field format: number, assumed A450 nm, no unit text.

C8-H241 (antibody, human IgG2, kappa, V domains shown, Named IgG4 kappa; also called Mab C8-H241) VH: QVQLVQSGAEVKKPGASVKVSCKASGYTFTDYYMHWVRQAPGQGLEWMGRVNPNRRGTTYNQKFEGRVTMTTDTSTSTAYMELRSLRSDDTAVYYCARANWLDYWGQGTTVTVSS VL: DIQMTQSPSSLSASVGDRVTITCSVSSSVSSIYLHWYQQKPGKAPKLLIYSTSNLASGVPSRFSGSGSGTDFTLTISSLQPEDFATYYCQVYSGYPLTFGGGTKVEIKR | 2.53
D11-S17Y (antibody, human IgG2, kappa, V domains shown, Human engineered IgG2 kappa c-Met antibody; also called D11-S17Y IgG2) VH: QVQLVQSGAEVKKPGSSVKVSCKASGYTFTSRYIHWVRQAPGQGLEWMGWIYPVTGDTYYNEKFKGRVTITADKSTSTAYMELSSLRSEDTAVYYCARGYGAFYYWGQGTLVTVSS VL: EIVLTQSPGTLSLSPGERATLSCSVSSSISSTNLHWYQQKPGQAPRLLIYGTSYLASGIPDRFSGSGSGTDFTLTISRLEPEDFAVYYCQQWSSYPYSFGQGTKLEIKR | 2.08

Okay, next one:
Data point: C8-co-16 (antibody, human IgG2, kappa, V domains shown, Named IgG4 kappa; also called C8-co-16 IgG4) VH: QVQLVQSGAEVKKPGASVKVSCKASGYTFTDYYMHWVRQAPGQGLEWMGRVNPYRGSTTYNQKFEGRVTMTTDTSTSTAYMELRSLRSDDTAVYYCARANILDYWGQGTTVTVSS VL: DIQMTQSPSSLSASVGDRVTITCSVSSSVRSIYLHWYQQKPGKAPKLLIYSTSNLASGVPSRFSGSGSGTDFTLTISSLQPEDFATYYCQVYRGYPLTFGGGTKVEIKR ; AVG A450 nm = 2.2
